All values here come from patent US20240309087A1.

# test.system: T1, human CD112R on Jurkat CD112R effector cells (human, UniProt Q6DKI7 1-326)
# T1 sequence (looked up): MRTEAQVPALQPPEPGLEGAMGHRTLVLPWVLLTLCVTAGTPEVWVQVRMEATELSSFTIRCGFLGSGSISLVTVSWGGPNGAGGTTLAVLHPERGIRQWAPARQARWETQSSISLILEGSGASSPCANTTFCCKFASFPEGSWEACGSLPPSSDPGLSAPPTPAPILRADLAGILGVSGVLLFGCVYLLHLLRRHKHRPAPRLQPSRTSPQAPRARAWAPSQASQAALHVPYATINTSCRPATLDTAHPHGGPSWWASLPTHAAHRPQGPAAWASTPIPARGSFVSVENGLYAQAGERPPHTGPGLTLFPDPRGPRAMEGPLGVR
# method.summary: cell-based or functional assay
assay.metric: EC50, CD112R/CD112 NFAT-luciferase reporter (µg/mL)

>>> measured_number("6A10.1 (antibody, V domains shown) VH: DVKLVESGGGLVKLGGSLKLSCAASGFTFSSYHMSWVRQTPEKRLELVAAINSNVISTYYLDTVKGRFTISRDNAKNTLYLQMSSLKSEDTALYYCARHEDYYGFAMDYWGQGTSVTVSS VL: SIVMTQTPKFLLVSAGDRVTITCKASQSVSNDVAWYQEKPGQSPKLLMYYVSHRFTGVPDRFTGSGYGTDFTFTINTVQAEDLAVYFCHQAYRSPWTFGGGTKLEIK")
0.0507
>>> measured_number("5C10.1 (antibody, V domains shown) VH: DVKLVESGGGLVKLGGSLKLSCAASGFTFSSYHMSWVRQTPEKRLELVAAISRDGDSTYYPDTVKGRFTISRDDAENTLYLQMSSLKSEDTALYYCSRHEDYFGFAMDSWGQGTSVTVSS VL: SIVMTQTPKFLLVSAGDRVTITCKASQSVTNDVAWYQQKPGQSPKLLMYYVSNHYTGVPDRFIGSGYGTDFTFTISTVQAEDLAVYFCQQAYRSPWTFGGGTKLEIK")
0.0404
